Biological target: Ybr033w (UniProt P38073)
Sequence: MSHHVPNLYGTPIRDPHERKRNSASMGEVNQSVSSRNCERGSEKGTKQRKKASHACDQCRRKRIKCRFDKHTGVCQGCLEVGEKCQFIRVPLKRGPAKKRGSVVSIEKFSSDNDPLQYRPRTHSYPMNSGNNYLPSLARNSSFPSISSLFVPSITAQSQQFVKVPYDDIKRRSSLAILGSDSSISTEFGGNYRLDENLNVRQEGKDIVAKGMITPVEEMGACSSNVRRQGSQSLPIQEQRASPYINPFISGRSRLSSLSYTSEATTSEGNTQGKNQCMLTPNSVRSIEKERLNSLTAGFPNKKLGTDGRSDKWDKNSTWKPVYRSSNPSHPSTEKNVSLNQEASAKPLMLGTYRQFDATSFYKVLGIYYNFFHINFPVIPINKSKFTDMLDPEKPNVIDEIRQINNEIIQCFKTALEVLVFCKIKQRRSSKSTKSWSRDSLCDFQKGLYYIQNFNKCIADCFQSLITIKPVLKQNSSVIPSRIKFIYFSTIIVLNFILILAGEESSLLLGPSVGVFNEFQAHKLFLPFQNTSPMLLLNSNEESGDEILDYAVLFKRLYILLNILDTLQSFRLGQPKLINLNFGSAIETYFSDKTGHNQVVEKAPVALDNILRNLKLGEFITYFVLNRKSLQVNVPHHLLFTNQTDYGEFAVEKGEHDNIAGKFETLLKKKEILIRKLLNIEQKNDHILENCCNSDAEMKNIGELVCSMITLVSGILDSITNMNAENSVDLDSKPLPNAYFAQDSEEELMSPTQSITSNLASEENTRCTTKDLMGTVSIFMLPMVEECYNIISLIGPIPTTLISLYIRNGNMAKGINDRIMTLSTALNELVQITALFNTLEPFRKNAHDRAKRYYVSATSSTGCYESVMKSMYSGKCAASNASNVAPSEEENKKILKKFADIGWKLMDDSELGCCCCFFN
Assay: PBM E-score (8-mer binding enrichment) (E-score (-0.5 to 0.5)); higher = stronger / more preferred TF binding
Settings: protein concentration: 200 nM; construct: GST-full length
The full ranking holds about 33,000 sequences; the median of “E-score (-0.5 to 0.5)” is about -0.012, and the highest 2% start at about 0.29. This excerpt belongs to a sample that is enriched for the highest values.
Record 1.0 whenever PBM E-score is at 0.08 or higher; record 0.0 when lower.

Lookup: Decide: is the reported value of PBM E-score for GTATGATA equal to or greater than 0.08?
Found: 1.0

Lookup: Decide: is the reported value of PBM E-score for AAGAAAAT equal to or greater than 0.08?
Found: 1.0

Lookup: Decide: is the reported value of PBM E-score for ACATGTTG equal to or greater than 0.08?
Found: 1.0

Lookup: Decide: is the reported value of PBM E-score for CTGAACTA equal to or greater than 0.08?
Found: 0.0

Lookup: Decide: is the reported value of PBM E-score for TGGTCGAA equal to or greater than 0.08?
Found: 0.0

Lookup: Decide: is the reported value of PBM E-score for CGGCTATA equal to or greater than 0.08?
Found: 0.0

Lookup: Decide: is the reported value of PBM E-score for AAGGGGAT equal to or greater than 0.08?
Found: 0.0

Lookup: Decide: is the reported value of PBM E-score for AGTTAGAA equal to or greater than 0.08?
Found: 0.0

Lookup: Decide: is the reported value of PBM E-score for ACGAAAAT equal to or greater than 0.08?
Found: 1.0

Lookup: Decide: is the reported value of PBM E-score for AGAGTAGG equal to or greater than 0.08?
Found: 0.0

Lookup: Decide: is the reported value of PBM E-score for AAATGATA equal to or greater than 0.08?
Found: 1.0

Lookup: Decide: is the reported value of PBM E-score for CTATGATA equal to or greater than 0.08?
Found: 1.0

Lookup: Decide: is the reported value of PBM E-score for ACATGATC equal to or greater than 0.08?
Found: 1.0

Lookup: Decide: is the reported value of PBM E-score for ACATGTTC equal to or greater than 0.08?
Found: 0.0

Lookup: Decide: is the reported value of PBM E-score for AAGAAAAA equal to or greater than 0.08?
Found: 1.0

Lookup: Decide: is the reported value of PBM E-score for CCAAGCTC equal to or greater than 0.08?
Found: 0.0

Lookup: Decide: is the reported value of PBM E-score for AGAAAAAT equal to or greater than 0.08?
Found: 1.0

Lookup: Decide: is the reported value of PBM E-score for ACTAGTCG equal to or greater than 0.08?
Found: 0.0

Lookup: Decide: is the reported value of PBM E-score for ATGAACTA equal to or greater than 0.08?
Found: 1.0

Lookup: Decide: is the reported value of PBM E-score for ACATGATA equal to or greater than 0.08?
Found: 1.0

Lookup: Decide: is the reported value of PBM E-score for CATTCTGG equal to or greater than 0.08?
Found: 0.0

###

Target: Ybr033w (UniProt P38073)
Sequence: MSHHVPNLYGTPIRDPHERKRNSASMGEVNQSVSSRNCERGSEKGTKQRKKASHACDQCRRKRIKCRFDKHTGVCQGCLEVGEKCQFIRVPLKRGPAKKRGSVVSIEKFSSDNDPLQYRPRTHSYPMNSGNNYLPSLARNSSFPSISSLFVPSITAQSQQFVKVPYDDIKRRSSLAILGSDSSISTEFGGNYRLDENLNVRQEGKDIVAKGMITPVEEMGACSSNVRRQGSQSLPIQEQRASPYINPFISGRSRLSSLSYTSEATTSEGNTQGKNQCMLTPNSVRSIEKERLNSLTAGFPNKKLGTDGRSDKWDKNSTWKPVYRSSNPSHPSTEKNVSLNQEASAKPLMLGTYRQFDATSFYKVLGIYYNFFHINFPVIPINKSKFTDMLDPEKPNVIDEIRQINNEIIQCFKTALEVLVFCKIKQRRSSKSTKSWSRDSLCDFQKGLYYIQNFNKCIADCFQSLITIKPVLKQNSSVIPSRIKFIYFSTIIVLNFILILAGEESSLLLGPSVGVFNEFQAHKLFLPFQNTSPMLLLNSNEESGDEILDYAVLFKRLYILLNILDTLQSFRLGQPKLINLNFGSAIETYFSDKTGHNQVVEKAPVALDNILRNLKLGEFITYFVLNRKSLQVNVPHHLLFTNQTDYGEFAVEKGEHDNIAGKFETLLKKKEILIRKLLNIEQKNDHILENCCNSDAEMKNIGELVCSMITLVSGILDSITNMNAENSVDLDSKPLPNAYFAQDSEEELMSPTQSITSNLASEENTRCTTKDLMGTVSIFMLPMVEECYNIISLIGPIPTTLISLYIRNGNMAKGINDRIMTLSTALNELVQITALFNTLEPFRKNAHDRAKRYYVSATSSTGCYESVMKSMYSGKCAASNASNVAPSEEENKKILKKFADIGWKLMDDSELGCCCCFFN
Experiment: PBM E-score (8-mer binding enrichment) (E-score (-0.5 to 0.5)); higher = stronger / more preferred TF binding
Settings: protein concentration: 200 nM; construct: GST-full length
The full ranking holds about 33,000 sequences; the median of “E-score (-0.5 to 0.5)” is about -0.012, and the highest 2% start at about 0.29. The entries come from a sample that favours the highest values as a whole.
Record Fulfilled whenever PBM E-score is at 0.2 or higher; record Not fulfilled when lower.

Lookup: Decide: is the reported value of PBM E-score for GCAAATTA equal to or greater than 0.2?
Found: Not fulfilled

Lookup: Decide: is the reported value of PBM E-score for AGTATTAG equal to or greater than 0.2?
Found: Not fulfilled

Lookup: Decide: is the reported value of PBM E-score for GCAAAACA equal to or greater than 0.2?
Found: Not fulfilled

Lookup: Decide: is the reported value of PBM E-score for CCTATTAA equal to or greater than 0.2?
Found: Not fulfilled

Lookup: Decide: is the reported value of PBM E-score for TCTATTCA equal to or greater than 0.2?
Found: Not fulfilled

Lookup: Decide: is the reported value of PBM E-score for ATTAGATC equal to or greater than 0.2?
Found: Not fulfilled

Lookup: Decide: is the reported value of PBM E-score for AGGAAATA equal to or greater than 0.2?
Found: Fulfilled

Lookup: Decide: is the reported value of PBM E-score for CAAGAACA equal to or greater than 0.2?
Found: Not fulfilled

Lookup: Decide: is the reported value of PBM E-score for CGGACACA equal to or greater than 0.2?
Found: Not fulfilled

Lookup: Decide: is the reported value of PBM E-score for ATTAGATG equal to or greater than 0.2?
Found: Fulfilled

Lookup: Decide: is the reported value of PBM E-score for GGGAAATA equal to or greater than 0.2?
Found: Not fulfilled

Lookup: Decide: is the reported value of PBM E-score for ACGAAGAC equal to or greater than 0.2?
Found: Not fulfilled

Lookup: Decide: is the reported value of PBM E-score for CGGAAATA equal to or greater than 0.2?
Found: Fulfilled

Lookup: Decide: is the reported value of PBM E-score for AGGAAAAA equal to or greater than 0.2?
Found: Fulfilled

Lookup: Decide: is the reported value of PBM E-score for AGATGTCC equal to or greater than 0.2?
Found: Not fulfilled

Lookup: Decide: is the reported value of PBM E-score for CGTGGAAA equal to or greater than 0.2?
Found: Not fulfilled

Lookup: Decide: is the reported value of PBM E-score for TCTATTAA equal to or greater than 0.2?
Found: Fulfilled

Lookup: Decide: is the reported value of PBM E-score for ATTAGATA equal to or greater than 0.2?
Found: Fulfilled

Lookup: Decide: is the reported value of PBM E-score for TGTATTAA equal to or greater than 0.2?
Found: Fulfilled

Lookup: Decide: is the reported value of PBM E-score for AGGAAATG equal to or greater than 0.2?
Found: Not fulfilled

Lookup: Decide: is the reported value of PBM E-score for TGAAAAAA equal to or greater than 0.2?
Found: Fulfilled
